- SYSTEM NAME: T1, human ErbB3-Fc (R&D Systems) (human, UniProt P21860 20-643)
- T1 construct: Bought protein; also called wild-type ErbB3-Fc fusion; immobilized ErbB3; not shown: Fc part of the bought fusion protein; not described
- EXPERIMENTAL PROTOCOL: ELISA on ErbB3-Fc, soluble monovalent Sab (Example 42)
REPORTED PROPERTY: EC50 (nM)
Value expressed in nM; do not type the unit.

Guide cases for EC50, answers given:
[[record]]
binder = "3000-B03 (other, copies: 1 + 1) VH: EVQLLESGGGLVQPGGSLRLSCAASGFTFSNYWMHWVRQAPGKGLEWVALISNNGTYTYYADSVKGRFTISRDNSKNTLYLQMNSLRAEDTAVYYCAKDNEKNLYTWLDYWGQGTLVTVSS light: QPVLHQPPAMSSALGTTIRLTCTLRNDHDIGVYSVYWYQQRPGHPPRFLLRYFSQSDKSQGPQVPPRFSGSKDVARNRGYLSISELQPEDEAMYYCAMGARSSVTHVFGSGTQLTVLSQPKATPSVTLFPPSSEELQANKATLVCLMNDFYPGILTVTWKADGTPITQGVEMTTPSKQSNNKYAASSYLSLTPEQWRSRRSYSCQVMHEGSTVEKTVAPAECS"
result_units = "nM"
readout_number = 0.179

[[record]]
binder = "3000-E04 (other) VH: EVQLLESGGGLVQPGGSLRLSCAASGFTFSDYWMHWVRQAPGKGLEWVAVISWGGAYKYYADSVKGRFTISRDNSKNTLYLQMNSLRAEDTAVYYCAKDNEKNLYTWLDYWGQGTLVTVSS surrogate light: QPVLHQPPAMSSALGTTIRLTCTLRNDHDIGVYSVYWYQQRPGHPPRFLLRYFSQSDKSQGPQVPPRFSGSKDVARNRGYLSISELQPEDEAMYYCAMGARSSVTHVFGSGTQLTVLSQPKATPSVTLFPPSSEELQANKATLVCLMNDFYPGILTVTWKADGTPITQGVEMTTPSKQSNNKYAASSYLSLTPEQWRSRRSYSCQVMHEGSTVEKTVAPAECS"
result_units = "nM"
readout_number = 0.109

[[record]]
binder = "3000-A05 (other) VH: EVQLLESGGGLVQPGGSLRLSCAASGFTFSDYWMHWVRQAPGKGLEWVALISAGGTYKYYADSVKGRFTISRDNSKNTLYLQMNSLRAEDTAVYYCAKDNEKNLYTWLDYWGQGTLVTVSS light: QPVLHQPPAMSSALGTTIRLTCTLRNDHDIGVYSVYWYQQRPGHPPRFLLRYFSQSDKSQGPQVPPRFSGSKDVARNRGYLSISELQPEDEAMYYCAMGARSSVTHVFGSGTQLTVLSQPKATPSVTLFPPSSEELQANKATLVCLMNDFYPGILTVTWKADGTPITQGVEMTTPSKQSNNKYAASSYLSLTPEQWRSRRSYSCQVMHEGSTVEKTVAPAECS"
result_units = "nM"
readout_number = 0.082


## Input Tell me the measured EC50 of 3000-A04 (other, copies: 1 + 1) VH: EVQLLESGGGLVQPGGSLRLSCAASGFTFSSYWMHWVRQAPGKGLEWVALISAGGTSKYYADSVKGRFTISRDNSKNTLYLQMNSLRAEDTAVYYCAKDNEKNLYTWLDYWGQGTLVTVSS light: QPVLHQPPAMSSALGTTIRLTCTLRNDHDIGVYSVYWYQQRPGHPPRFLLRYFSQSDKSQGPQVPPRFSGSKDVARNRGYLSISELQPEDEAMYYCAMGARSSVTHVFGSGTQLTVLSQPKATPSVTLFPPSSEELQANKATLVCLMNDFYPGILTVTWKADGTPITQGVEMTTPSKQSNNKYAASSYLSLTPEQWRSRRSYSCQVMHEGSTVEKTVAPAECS , please.
## Output 0.127

## Input Requested read-out: EC50. Entry: 3000-B06 (other) VH: EVQLLESGGGLVQPGGSLRLSCAASGFTFSSYWMHWVRQAPGKGLEWVALISNNGAYIYYADSVKGRFTISRDNSKNTLYLQMNSLRAEDTAVYYCAKDNEKNLYTWLDYWGQGTLVTVSS light: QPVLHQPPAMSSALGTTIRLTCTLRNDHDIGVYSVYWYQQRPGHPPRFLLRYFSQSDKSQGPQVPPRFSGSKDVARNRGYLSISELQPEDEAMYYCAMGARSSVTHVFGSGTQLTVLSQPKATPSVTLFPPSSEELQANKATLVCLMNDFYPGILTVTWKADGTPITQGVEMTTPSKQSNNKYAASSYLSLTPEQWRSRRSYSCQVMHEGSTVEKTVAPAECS
## Output 0.084

## Input Which EC50 is reported for this binder? 3000-C07 (other) VH: EVQLLESGGGLVQPGGSLRLSCAASGFTFSSYWMSWVRQAPGKGLEWVALISNGGSIKYYADSVKGRFTISRDNSKNTLYLQMNSLRAEDTAVYYCAKDNEKNLYTWLDYWGQGTLVTVSS surrogate light: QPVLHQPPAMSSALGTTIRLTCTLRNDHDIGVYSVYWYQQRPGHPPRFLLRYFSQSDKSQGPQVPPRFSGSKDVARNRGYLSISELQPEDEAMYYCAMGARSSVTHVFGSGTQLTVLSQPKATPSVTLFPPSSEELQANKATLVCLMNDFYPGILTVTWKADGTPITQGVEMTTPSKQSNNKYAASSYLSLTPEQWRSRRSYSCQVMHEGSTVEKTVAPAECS
## Output 0.102

## Input Please report the recorded EC50 for 3000-H03 (other) VH: EVQLLESGGGLVQPGGSLRLSCAASGFTFSDYWMHWVRQAPGKGLEWVSLISNGGGYTYYADSVKGRFTISRDNSKNTLYLQMNSLRAEDTAVYYCAKDNEKNLYTWLDYWGQGTLVTVSS surrogate light: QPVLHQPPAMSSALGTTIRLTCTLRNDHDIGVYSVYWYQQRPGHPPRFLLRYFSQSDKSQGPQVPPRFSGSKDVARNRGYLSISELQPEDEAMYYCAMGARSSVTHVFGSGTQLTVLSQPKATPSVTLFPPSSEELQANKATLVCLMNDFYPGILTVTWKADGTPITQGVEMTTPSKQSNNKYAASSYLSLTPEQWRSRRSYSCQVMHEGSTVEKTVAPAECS .
## Output 0.109
